The reported measurements were obtained from patent US20030083239A1.

Target: T1, CCR3 on human eosinophils (human, UniProt P51677 1-355)
T1 construct: whole, on cells; Endogenous receptor on purified human eosinophils; also called chemokine receptor CCR3; CCR3 receptor
T1 sequence (looked up): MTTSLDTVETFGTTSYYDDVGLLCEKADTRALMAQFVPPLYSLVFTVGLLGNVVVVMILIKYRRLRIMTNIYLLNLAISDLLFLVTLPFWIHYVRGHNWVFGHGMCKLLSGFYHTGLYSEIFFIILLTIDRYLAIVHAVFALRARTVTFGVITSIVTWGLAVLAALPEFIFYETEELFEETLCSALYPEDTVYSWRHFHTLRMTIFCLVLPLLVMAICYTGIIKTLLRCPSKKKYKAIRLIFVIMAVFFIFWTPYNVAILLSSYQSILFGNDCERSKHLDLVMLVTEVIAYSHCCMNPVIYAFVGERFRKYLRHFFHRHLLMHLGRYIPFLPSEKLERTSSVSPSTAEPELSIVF
Assay: competition with 125I-eotaxin (0.3 nM) for CCR3 on human eosinophils, filtration radioligand assay
Ends that are not written are not given here.
assay.readout: IC50

INSERT INTO results (binder, measured_value) VALUES
  ('CRCAAR (not fully specified; cysteine pairing not given here, Synthetic hexapeptide; also called compound SC004411) [hexamer peptide CRCAAR (SEQ ID NO: 1), peptide SC004411]', '~40 µM');
